- Study System: human V2 receptor (Homo sapiens, UniProt P30518)
- Construct: expressed in transfected cells; host or cells: CHO K1 (ATCC) expressing firefly luciferase under a CRE-responsive promoter
- Sequence (P30518 whole entry): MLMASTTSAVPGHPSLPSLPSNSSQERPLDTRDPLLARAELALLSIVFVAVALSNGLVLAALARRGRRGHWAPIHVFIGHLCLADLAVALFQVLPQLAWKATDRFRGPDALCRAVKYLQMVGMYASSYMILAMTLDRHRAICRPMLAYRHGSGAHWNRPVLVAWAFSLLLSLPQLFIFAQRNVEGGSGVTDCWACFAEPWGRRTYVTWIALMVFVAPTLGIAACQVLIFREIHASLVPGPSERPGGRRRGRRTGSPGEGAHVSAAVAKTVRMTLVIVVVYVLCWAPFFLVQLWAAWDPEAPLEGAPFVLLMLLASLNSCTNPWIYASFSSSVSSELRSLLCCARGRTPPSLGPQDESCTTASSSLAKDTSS
- Method Summary: Cellular in vitro assay for determining vasopressin receptor activity, V2 receptor cell line (CHO, CRE-luciferase)
- Format: cell-based
- Measurement Context: CHO cell line transfected with human V2 receptor; [Arg8]-vasopressin at EC50 concentration; read-out: IC50 hV2
Readout Label: IC50 (µM)
Answers are plain numbers, in µM.

Items follow; give IC50 for each.
1. NC(=O)C1CCCN1C(=O)c1ncccc1-n1cnc(Cn2nc(-c3ccc(Cl)cc3)n(C[C@@H](O)C(F)(F)F)c2=O)n1 (mixture of isomers)
2. O=C(NCC(F)(F)F)c1ccncc1-n1cnc(Cn2nc(-c3ccc(Cl)cc3)n(C[C@H](O)C(F)(F)F)c2=O)n1
3. COCC1CCCN1C(=O)c1ccncc1-n1nc(Cn2nc(-c3ccc(Cl)cc3)n(C[C@H](O)C(F)(F)F)c2=O)nc1C(=O)N1CCNC(=O)C1 (mixture of isomers)

Result:
[32, 1.7, 55]

---

- Study System: human V1a receptor (Homo sapiens, UniProt P37288)
- Sequence (P37288 whole entry): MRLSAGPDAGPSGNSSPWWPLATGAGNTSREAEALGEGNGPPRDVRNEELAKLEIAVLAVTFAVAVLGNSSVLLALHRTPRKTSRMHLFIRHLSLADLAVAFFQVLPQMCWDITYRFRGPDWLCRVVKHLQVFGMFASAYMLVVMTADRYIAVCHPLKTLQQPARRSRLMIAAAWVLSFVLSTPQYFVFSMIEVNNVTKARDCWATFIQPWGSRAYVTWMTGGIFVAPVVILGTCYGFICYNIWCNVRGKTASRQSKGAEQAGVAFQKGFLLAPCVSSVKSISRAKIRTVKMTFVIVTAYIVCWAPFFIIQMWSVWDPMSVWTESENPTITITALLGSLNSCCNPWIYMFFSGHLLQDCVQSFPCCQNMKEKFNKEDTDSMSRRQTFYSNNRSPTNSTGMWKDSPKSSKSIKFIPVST
- Method Summary: Cellular in vitro assay for determining vasopressin receptor activity, V1a receptor cell line (CHO, aequorin luminescence)
- Measurement Context: CHO cell line transfected with human V1a receptor; [Arg]-vasopressin at EC50 concentration; read-out: IC50 hV1a
Readout Label: pIC50
Give bare numbers, as −log10 of the molar value.

Worked set:
O=C(NCC1CC1)c1ncccc1-n1cnc(Cn2nc(-c3ccc(Cl)cc3)n(C[C@H](O)C(F)(F)F)c2=O)n1 [Example 432]: 7.35
O=C(Nc1cccnc1-n1cnc(Cn2nc(-c3ccc(Cl)cc3)n(C[C@H](O)C(F)(F)F)c2=O)n1)[C@@H]1C[C@@H]1C(F)(F)F (racemic) [Example 45]: 7.48
CC(C(=O)Nc1ncccc1-n1cnc(Cn2nc(-c3ccc(Cl)cc3)n(C[C@H](O)C(F)(F)F)c2=O)n1)n1cncn1 (stereo partly drawn) [Example 155]: 7.41
O=C(CC(F)(F)F)Nc1cccnc1-n1cnc(Cn2nc(-c3ccc(Cl)cc3)n(C[C@H](O)C(F)(F)F)c2=O)n1 [Example 37]: 8.12
CC(C)(C)NC(=O)c1ccccc1-n1cnc(Cn2nc(-c3ccc(Cl)cc3)n(C[C@H](O)C(F)(F)F)c2=O)n1 [Example 344]: 9.03

Query compound follows.
Task: Looking for the measured pIC50 of O=C(c1ccccc1-n1cnc(Cn2nc(-c3ccc(Cl)cc3)n(C[C@H](O)C(F)(F)F)c2=O)n1)N1CCCOCC1 [Example 284] , can you help?
Result: 8.70

---

- Study System: human V1a receptor (Homo sapiens)
- Construct: expressed in transfected cells; host or cells: CHO K1 (ATCC), also stably transfected with a modified aequorin
- Method Summary: Cellular in vitro assay for determining vasopressin receptor activity, V1a receptor cell line (CHO, aequorin luminescence)
- Type: cell-based
- Measurement Context: selectivity ratio IC50 hV2 / IC50 hV1a
Would you kindly list ratio IC50 hV2/hV1a for each of these compounds?
Answers are plain numbers.

Worked set:
Cc1n[nH]c(C)c1NC(=O)c1ccccc1-n1cnc(Cn2nc(-c3ccc(Cl)cc3)n(C[C@H](O)C(F)(F)F)c2=O)n1: 854.5
O=C(Nc1ccncn1)c1ccccc1-n1cnc(Cn2nc(-c3ccc(Cl)cc3)n(C[C@H](O)C(F)(F)F)c2=O)n1: 24.8

Query compound follows.
Task: Item: O=C(NC1CC(F)(F)C1)c1ncccc1-n1cnc(Cn2nc(-c3ccc(Cl)cc3)n(C[C@H](O)C(F)(F)F)c2=O)n1 Test system: human V1a receptor (Homo sapiens) Read-out: ratio IC50 hV2/hV1a Value: ?
Result: 24.0
